Listed next: entries and their corresponding inhibition.
system: Neuropeptides B/W receptor type 1 (Homo sapiens)
assay-overview: GPR7 receptor antagonists, primary screen, cell-based, fluorescence, single concentration (AID 1861);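 further: cells stimulated with the agonist NPW; 0% = agonist with vehicle and 100% = vehicle without agonist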
test-conditions: GPR7-expressing cells, fluorescence antagonist assay; at 4.4 µM; stronger effect = higher value
Out of some 290,000 compounds screened, about 3,100 (1.1%) were called active. The entries come from a sample that favours actives as a whole.
Dear colleague, please return just the value in %, with no unit written.

[[record]]
compound = "Cc1cccc2c1N(CC(=O)OC(C)C)C(=O)C2=O"
system = "Neuropeptides B/W receptor type 1 (Homo sapiens)"
unit_annotation = "%"
recorded_result = -5.53

[[record]]
compound = "Cc1ccccc1NC(=O)CCNS(=O)(=O)c1ccc2[nH]c(=O)oc2c1"
system = "Neuropeptides B/W receptor type 1 (Homo sapiens)"
unit_annotation = "%"
recorded_result = -12.7


QUERY: Form entry - test system: Neuropeptides B/W receptor type 1 (Homo sapiens); read-out: inhibition; compound: CCC1CCCCN1C(=S)Nc1ccc(S(=O)(=O)Nc2ncccn2)cc1 (stereo unspecified)
RESULT: -0.2

QUERY: // repeat for "Fc1ccccc1Cn1cnc(NC(=S)NCCc2ccccc2)n1" and report
RESULT: 10.1

QUERY: // repeat for "C=CCn1c(CNC(=O)c2ccco2)nnc1SCC(=O)c1ccc(OC)cc1" and report
RESULT: -0.25

QUERY: // repeat for "CC(C)OC(=O)CN1C(=O)c2ccccc2C1=O" and report
RESULT: 20.4

QUERY: // repeat for "CCCC(=O)Nc1nc2ccc(NC(=O)c3c(F)c(F)c(OC)c(F)c3F)cc2s1" and report
RESULT: 36.2

QUERY: // repeat for "CC(C)OC(=O)CN1C(=O)C(=O)c2ccccc21" and report
RESULT: -2.31

====

system: Neuropeptides B/W receptor type 1 (Homo sapiens) (UniProt P48145)
Sequence (P48145 whole entry, looked up): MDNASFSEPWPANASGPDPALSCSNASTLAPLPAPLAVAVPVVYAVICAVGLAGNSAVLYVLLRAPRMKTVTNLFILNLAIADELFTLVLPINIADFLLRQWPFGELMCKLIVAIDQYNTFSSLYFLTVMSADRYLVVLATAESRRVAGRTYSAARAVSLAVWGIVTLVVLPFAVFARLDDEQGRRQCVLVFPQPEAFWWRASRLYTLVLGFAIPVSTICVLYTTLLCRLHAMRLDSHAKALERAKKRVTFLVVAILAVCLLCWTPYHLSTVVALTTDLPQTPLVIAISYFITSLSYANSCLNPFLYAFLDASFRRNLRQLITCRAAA
assay-overview: GPR7 receptor antagonists, primary screen, cell-based, fluorescence, single concentration (AID 1861)
test-conditions: GPR7-expressing cells, fluorescence antagonist assay; at 4.4 µM; stronger effect = higher value
The campaign covered roughly 290,000 compounds. About 3,100 (1.1%) were called active. The entries come from a sample that favours actives as a whole.
property: inhibition (%)
Dear colleague, please return just the value in %, with no unit written.

QUERY: Form entry - test system: Neuropeptides B/W receptor type 1 (Homo sapiens) (UniProt P48145); read-out: inhibition; compound: O=C(NCC(=O)N(c1ccccc1)C(C(=O)NCC1CCCO1)c1ccccc1)c1cccs1 (stereo not given)
RESULT: -0.97

QUERY: // repeat for "Cc1cc(C(=O)COC(=O)c2cccs2)c(C)n1-c1c(C)n(C)n(-c2ccccc2)c1=O" and report
RESULT: -14.8

====

system: Neuropeptides B/W receptor type 1 (Homo sapiens) (UniProt P48145)
assay-overview: GPR7 receptor antagonists, primary screen, cell-based, fluorescence, single concentration (AID 1861)
test-conditions: GPR7-expressing cells, fluorescence antagonist assay; at 4.4 µM; stronger effect = higher value
Out of some 290,000 compounds screened, about 3,100 (1.1%) were called active. This excerpt belongs to a sample that is enriched for actives.
property: inhibition (%)
Dear colleague, please return just the value in %, with no unit written.

Examples with their reported inhibition follow.
[[record]]
molecule = "Cn1c2ccc(F)cc2c2nnc(NN)nc21"
property = "inhibition"
recorded_result = -11.3

[[record]]
molecule = "O=C(COC(=O)c1ccc(F)cc1)NCCCc1ccccc1"
property = "inhibition"
recorded_result = 12.2

[[record]]
molecule = "O=C(Nc1ccc(Br)cc1F)C1CC(=O)N(C2CCCCC2)C1 (configuration not stated)"
property = "inhibition"
recorded_result = -3.95

[[record]]
molecule = "Cc1ccc(N(Cc2ccccc2O)C(=O)c2ccccc2F)cc1"
property = "inhibition"
recorded_result = -15.3

[[record]]
molecule = "CCn1c2ccc(F)cc2c2nnc(SCCN3CCOCC3)nc21"
property = "inhibition"
recorded_result = 77.2

[[record]]
molecule = "NC(=O)COc1ccccc1C(=O)NC12CC3CC(CC(C3)C1)C2"
property = "inhibition"
recorded_result = -4.36

[[record]]
molecule = "Cc1ccc(SCc2c(C(=O)N/N=C/c3cccnc3)nnn2-c2nonc2N)cc1"
property = "inhibition"
recorded_result = -12

[[record]]
molecule = "COCCN1C(=O)C(=O)/C(=C(/O)c2ccc(S(=O)(=O)N3CCCCC3)cc2)C1c1ccc(OC)c(OC)c1 (configuration not stated)"
property = "inhibition"
recorded_result = -6.88

[[record]]
molecule = "CCOC(=O)c1sc(NC(=O)CSc2nnc(-c3ccco3)o2)c(C(=O)OCC)c1C"
property = "inhibition"
recorded_result = -9.68

[[record]]
molecule = "CC1CCCN(CCCNC(=O)CN2C(=O)COc3ccc(S(=O)(=O)N4CCOCC4)cc32)C1 (configuration not stated)"
property = "inhibition"
recorded_result = -10.9


QUERY: Sample COCc1ccc(C(=O)NC2CC(C)(C)Cc3c2cnn3-c2ccc(C)cc2)o1 (configuration not stated) — what was its inhibition?
RESULT: -0.16

QUERY: // repeat for "COc1ccc(-n2nc(C(=O)NCC(=O)N3CCN(c4ccccc4OC)CC3)c3ccccc3c2=O)c(OC)c1" and report
RESULT: 1.21

QUERY: // repeat for "CC1=C/C(=N\OS(=O)(=O)c2ccccc2)C=CC1=O" and report
RESULT: -2.03

====

system: Neuropeptides B/W receptor type 1 (Homo sapiens) (UniProt P48145)
assay-overview: GPR7 receptor antagonists, primary screen, cell-based, fluorescence, single concentration (AID 1861);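 further: cells stimulated with the agonist NPW; 0% = agonist with vehicle and 100% = vehicle without agonist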
test-conditions: GPR7-expressing cells, fluorescence antagonist assay; at 4.4 µM; stronger effect = higher value
Hit rate of the full screen: of about 290,000 compounds, about 3,100 (1.1%) were called active. This is one part of a sample in which actives are shown more often than they occur.
Listed next: entries and their corresponding inhibition.
Dear colleague, please return just the value in %, with no unit written.

[[record]]
compound = "CN(C)CCNc1ccc(-c2n[nH]c(=O)c3ccccc23)cc1[N+](=O)[O-]"
recorded_result = -19.5

[[record]]
compound = "O=C(NCc1ccco1)/C(=C/c1ccco1)NC(=O)c1ccccc1"
recorded_result = -4.86

[[record]]
compound = "O=C(CC1SC(=Nc2ccccc2)N(Cc2ccccn2)C1=O)Nc1cccc(Cl)c1 (stereo not given)"
recorded_result = -4.47

[[record]]
compound = "Cc1ccc2nc(Nc3ccccc3)cc(C)c2c1"
recorded_result = -2.1

[[record]]
compound = "NC(=O)C1CCN(C(=O)/C(=C/c2ccco2)NC(=O)c2ccccc2)CC1"
recorded_result = -7.3

[[record]]
compound = "Cc1c(CN2CCC(n3nccc3NC(=O)CCc3ccccc3)CC2)cnn1C"
recorded_result = 0.34


--- query ---
QUERY: Form entry - test system: Neuropeptides B/W receptor type 1 (Homo sapiens) (UniProt P48145); read-out: inhibition; compound: "COc1cc(NC(=O)c2ccccc2NS(=O)(=O)c2ccc(Cl)s2)cc(OC)c1"
RESULT: 26.7

====

system: Neuropeptides B/W receptor type 1 (Homo sapiens) (UniProt P48145)
assay-overview: GPR7 receptor antagonists, primary screen, cell-based, fluorescence, single concentration (AID 1861);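 further: cells stimulated with the agonist NPW; 0% = agonist with vehicle and 100% = vehicle without agonist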
test-conditions: GPR7-expressing cells, fluorescence antagonist assay; at 4.4 µM; stronger effect = higher value
The whole screen tested about 290,000 compounds, of which about 3,100 (1.1%) were called active. This excerpt belongs to a sample that is enriched for actives.
property: inhibition (%)
Dear colleague, please return just the value in %, with no unit written.

Examples with their reported inhibition follow.
[[record]]
record_smiles = "NS(=O)(=O)c1cccc(NC(=O)CSc2nc3ccccc3n2-c2ccccc2)c1"
property = "inhibition"
recorded_result = 0.27

[[record]]
record_smiles = "O=C(c1cc2ccccc2o1)N1CCN(Cc2ccccc2)CC1"
property = "inhibition"
recorded_result = -6.86

[[record]]
record_smiles = "O=C(CCCN1CCc2[nH]c3ccc(F)cc3c2C1)c1ccc(F)cc1"
property = "inhibition"
recorded_result = 33.9

[[record]]
record_smiles = "COc1ccc(-c2nnc3n2CCCCC3)cc1"
property = "inhibition"
recorded_result = 1.65

[[record]]
record_smiles = "Cc1ccc2[nH]c3c(c2c1)CN(C(=O)CN1CCN(c2ccccc2)CC1)CC3"
property = "inhibition"
recorded_result = 3.49


--- query ---
QUERY: Sample "CN(C)S(=O)(=O)c1ccc(C(=O)NCCN=C2NS(=O)(=O)c3ccccc32)cc1" — what was its inhibition?
RESULT: -2.36

====

system: Neuropeptides B/W receptor type 1 (Homo sapiens) (UniProt P48145)
assay-overview: GPR7 receptor antagonists, primary screen, cell-based, fluorescence, single concentration (AID 1861);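 further: cells stimulated with the agonist NPW; 0% = agonist with vehicle and 100% = vehicle without agonist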
test-conditions: GPR7-expressing cells, fluorescence antagonist assay; at 4.4 µM; stronger effect = higher value
Hit rate of the full screen: of about 290,000 compounds, about 3,100 (1.1%) were called active. This is one part of a sample in which actives are shown more often than they occur.
Listed next: entries and their corresponding inhibition.
Dear colleague, please return just the value in %, with no unit written.

[[record]]
compound = "Cc1ccc(F)c(NC(=O)CCOc2ccccc2C)c1"
recorded_result = -9.71


QUERY: Form entry - test system: Neuropeptides B/W receptor type 1 (Homo sapiens) (UniProt P48145); read-out: inhibition; compound: CS(=O)(=O)Nc1ccc(C2=NN(S(C)(=O)=O)C(c3cccs3)C2)cc1 (configuration not stated)
RESULT: -8.38

QUERY: // repeat for "O=C(COc1ccc([N+](=O)[O-])cc1)Nc1ccc(N2CCCC2)cc1" and report
RESULT: -6.84

QUERY: // repeat for COc1ccc(C2=NN(C(=O)c3ccccc3C(=O)O)C(c3ccccc3O)C2)cc1 (configuration not stated) and report
RESULT: 1.53
